Values compiled from patent US20230144436A1.

Biological target: T1, cynomolgus monkey transferrin receptor 1 (cynomolgus monkey (Macaca fascicularis), UniProt Q5RDH6 89-760 (Pongo abelii entry), limits assumed)
T1 construct: also called cyTfR1; Cyno TfR1
T1 chain: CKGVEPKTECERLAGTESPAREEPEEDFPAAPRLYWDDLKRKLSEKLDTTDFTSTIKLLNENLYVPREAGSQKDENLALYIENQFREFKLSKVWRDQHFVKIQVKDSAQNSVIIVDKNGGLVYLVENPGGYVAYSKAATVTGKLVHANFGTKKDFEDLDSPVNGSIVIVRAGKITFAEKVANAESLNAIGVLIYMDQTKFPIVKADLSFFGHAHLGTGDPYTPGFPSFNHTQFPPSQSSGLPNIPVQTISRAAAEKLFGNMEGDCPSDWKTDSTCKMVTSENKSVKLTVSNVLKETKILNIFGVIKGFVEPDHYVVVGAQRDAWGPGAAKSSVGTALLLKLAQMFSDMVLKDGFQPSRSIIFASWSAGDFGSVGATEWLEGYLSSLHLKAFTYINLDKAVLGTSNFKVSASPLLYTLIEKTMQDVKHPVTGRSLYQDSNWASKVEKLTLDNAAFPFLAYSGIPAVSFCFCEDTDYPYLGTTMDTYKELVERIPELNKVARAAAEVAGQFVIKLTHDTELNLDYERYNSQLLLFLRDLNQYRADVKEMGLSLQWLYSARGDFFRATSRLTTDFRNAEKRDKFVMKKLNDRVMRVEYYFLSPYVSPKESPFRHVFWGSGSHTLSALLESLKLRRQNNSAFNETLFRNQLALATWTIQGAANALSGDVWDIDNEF
Assay: average KD, antibody alone; method not given
Parameter: pKd
Answers are plain numbers, as −log10 of the molar value.

Look over these answered cases.
Binder	pKd
8-D15 (antibody, V domains shown, Tested as a mouse monoclonal IgG) VH: QVQLKESGPGLVAPSQSLSITCTVSGFSLTSYAITWVRQSPGKGLEWLGLIWTGGGTNYNSALKSRLSISKDNSKSQVFLKMNSLQTDDTARYYCARIYDGYYRYFDVWGTGTTVTVSS VL: RIVLTQTPKFLLVSAGDRVTMTCKASQSVSNDVAWYQQKPGQSPKLLIYYASNRYTGVPDRFTGSGYGTDFTFTISTVQAEDLAVYFCQQDYSSPWTFGGGTKLEIK	7.95
Anti-TfR antibody 15G11 (antibody, V domains shown, Known control antibody; It was captured as an IgG on the Carterra chip; also called ctrl-15G11; 15G11 (control)) VH: QVQLQQPGAELVKPGASVKLSCKASGYTFTSYWMHWVKQRPGQGLEWIGEINPTNGRTNYIEKFKSKATLTVDKSSSTAYMQLSSLTSEDSAVYYCARGTRAYHYWGQGTSVTVSS VL: DIQMTQSPASLSVSVGETVTITCRASDNLYSNLAWYQQKQGKSPQLLVYDATNLADGVPSRFSGSGSGTQYSLKINSLQSEDFGTYYCQHFWGTPLTFGAGTKLELK	9.00
9-C4 (antibody, V domains shown, Tested as a mouse monoclonal IgG; also called 9-C04) VH: EVQLMESGGDLVKPGGSLKLSCAASGFTFSSYGLSWVRQTPDKRLEWVATITSGGSYTYYPDSVKGRFTISRDNARNTLYLQMFSLKSEDTAMYYCALWSLDYWGQGTTLTVSS VL: QIVLTQSPAIMSASPGEKVTMTCSANSSLSYMHWYQQKPGTSPKRWIYDTSELASGVPARFSGSGSGTSYSLTISSMEAEDAATYYCHQRRSYPWTFGGGTKLEIK	7.92
2-H19 (antibody, V domains shown, Tested as a mouse monoclonal IgG) VH: EVQLQQSGAELVRSGASVKLSCTASGFNIKDYYMHWVKQRPEQGLEWIGWIDPESGDTEYAPKFQGRATMTADTSSNTAYMQLSSLTSEDTAVYYCYGHDYRVDCWGQGTSVTVSS VL: DVVMTQTPLSLPVSLGDQASISCRSSQSLVHSNGNTYLHWYLQKPGQSPKLLIYKVSNRFSGVPDRFSGSGSGTDFTLKISRVEAEDLGVYFCSQSTHIPWTFGGGTKLEIK	8.24
8-K6 (antibody, V domains shown, Tested as a mouse monoclonal IgG; also called 8-K06) VH: QVHLQQPGAELVKPGASVKMSCKASGYTFTSYWITWVKQRPGQGLEWIGDIFPNSGRTNYDEKFKSKATLTVDTSSSTAYMQLSSLTSEDSAVYFCAREGNFGSLDYWGQGTTLTVSS VL: QIVLTQSPAIMSASPGEKVTMTCSANSNLNYMNWYHQKSGTSPKRWIYDTSKLASGVPARFSASGSGTSYSLTISSMEAEDAATYYCQQWSRNPLTFGAGTRLELK	9.42

# evaluate next
[Q] # lookup: pKd of 6-D3 (antibody, V domains shown, Tested as a mouse monoclonal IgG; also called 6-D03) VH: QVQLQQPGAELVKPGASVKMSCKASGYTFTRHWITWVKQRPGQGLEWIGDIYPGSGRTNYNEKFKSTATLTVDTSSSTAYMQLSSLTSEDSAVYYCARDGYLYINYFDYWGQGTTLTVSS VL: ENVLTQSPAIMSASPGEKVTMTCSASSSVSFMHWFQQKSSTSPKLWIYDTSKLASGVPGRFSGSGSGSSYSLTISSMAAEDVATYYCFQGSGYPYTFGGGTKLEIK
[A] 9.11
